Tested on: colo320 (colorectal cancer tissue)
Assay: cells
Type: cell-based
Conditions: CCK8, 48 h; Table 6
Where a SMILES comes first, the peptide text is derived from it. The star is where a group is joined. NEt(2-(20S-CPT-7-yl)ethyl) = CCN(CCc1c2c(nc3ccccc13)-c1cc3c(c(=O)n1C2)COC(=O)[C@]3(O)CC)*; Belotecan = CC[C@@]1(O)C(=O)OCc2c1cc1n(c2=O)Cc2c-1nc1ccccc1c2CCN(C(C)C)*; X2 = CCCCN(CCc1c2c(nc3ccccc13)-c1cc3c(c(=O)n1C2)COC(=O)[C@]3(O)CC)*; X8 = CC[C@@]1(O)C(=O)OCc2c1cc1n(c2=O)Cc2c-1nc1ccccc1c2CCN(C1CCCC1)*; X1 = CC[C@@]1(O)C(=O)OCc2c1cc1n(c2=O)Cc2c-1nc1ccccc1c2CCN(C1CCC1)*; X4 = CCCN(CCc1c2c(nc3ccccc13)-c1cc3c(c(=O)n1C2)COC(=O)[C@]3(O)CC)*; X5 = CC[C@@]1(O)C(=O)OCc2c1cc1n(c2=O)Cc2c-1nc1ccccc1c2CCN(CC(C)C)*; X3 = CC[C@@]1(O)C(=O)OCc2c1cc1n(c2=O)Cc2c-1nc1ccccc1c2CCN(C1CC1)*; X7 = CC[C@@]1(O)C(=O)OCc2c1cc1n(c2=O)Cc2c-1nc1ccccc1c2CCN(C)*; Propanoyl(3-maleimido) = O=C1C=CC(=O)N1CCC(=O)*; PEG6 = NCCOCCOCCOCCOCCOCCOCCC(=O)O
IC50 Colorectal cancer tissue (colo320) overview
Answer in µg/mL, number only, no unit symbol.

Recorded results for 2 compounds are shown here.
• CCN(CCc1c2c(nc3ccccc13)-c1cc3c(c(=O)n1C2)COC(=O)[C@]3(O)CC)C(=O)[C@H](CC(C)C)NC(=O)[C@H](CC(N)=O)NC(=O)[C@H](C)NC(=O)[C@H](C)NC(=O)CCOCCOCCOCCOCCOCCOCCNC(=O)CCN1C(=O)C=CC1=O [MI-6PEG-AANL-D2] ({Propanoyl(3-maleimido)-PEG6}-AANL-{NEt(2-(20S-CPT-7-yl)ethyl)}) = 4.65
• CC[C@@]1(O)C(=O)OCc2c1cc1n(c2=O)Cc2c-1nc1ccccc1c2CCN(C)C(=O)[C@H](CC(C)C)NC(=O)[C@H](CC(N)=O)NC(=O)[C@H](C)NC(=O)[C@H](C)NC(=O)CCOCCOCCOCCOCCOCCOCCNC(=O)CCN1C(=O)C=CC1=O [MI-6PEG-AANL-D1] ({Propanoyl(3-maleimido)-PEG6}-AANL-X7) = 3.82

Print colo320 (colorectal cancer tissue) IC50 Colorectal cancer tissue (colo320) for CC[C@@]1(O)C(=O)OCc2c1cc1n(c2=O)Cc2c-1nc1ccccc1c2CCN(C(=O)[C@H](CC(C)C)NC(=O)[C@H](CC(N)=O)NC(=O)[C@H](C)NC(=O)[C@H](C)NC(=O)CCOCCOCCOCCOCCOCCOCCNC(=O)CCN1C(=O)C=CC1=O)C1CC1 [MI-6PEG-AANL-D6] ({Propanoyl(3-maleimido)-PEG6}-AANL-X3) .
1.87

Provide IC50 Colorectal cancer tissue (colo320), recorded with colo320 (colorectal cancer tissue), of CCCCN(CCc1c2c(nc3ccccc13)-c1cc3c(c(=O)n1C2)COC(=O)[C@]3(O)CC)C(=O)[C@H](CC(C)C)NC(=O)[C@H](CC(N)=O)NC(=O)[C@H](C)NC(=O)[C@H](C)NC(=O)CCOCCOCCOCCOCCOCCOCCNC(=O)CCN1C(=O)C=CC1=O [MI-6PEG-AANL-D4] ({Propanoyl(3-maleimido)-PEG6}-AANL-X2)
5.40

Report IC50 Colorectal cancer tissue (colo320) under test system colo320 (colorectal cancer tissue) for `CC[C@@]1(O)C(=O)OCc2c1cc1n(c2=O)Cc2c-1nc1ccccc1c2CCNC1CC1` .
0.0048

Answer briefly: IC50 Colorectal cancer tissue (colo320) recorded on colo320 (colorectal cancer tissue) for CCNCCc1c2c(nc3ccccc13)-c1cc3c(c(=O)n1C2)COC(=O)[C@]3(O)CC [D2]
0.051

Would you please give the reported IC50 Colorectal cancer tissue (colo320) of `CCCCNCCc1c2c(nc3ccccc13)-c1cc3c(c(=O)n1C2)COC(=O)[C@]3(O)CC` with colo320 (colorectal cancer tissue)?
0.078

State, for colo320 (colorectal cancer tissue), measured IC50 Colorectal cancer tissue (colo320) of the compound listed here: CCCN(CCc1c2c(nc3ccccc13)-c1cc3c(c(=O)n1C2)COC(=O)[C@]3(O)CC)C(=O)[C@H](CC(C)C)NC(=O)[C@H](CC(N)=O)NC(=O)[C@H](C)NC(=O)[C@H](C)NC(=O)CCOCCOCCOCCOCCOCCOCCNC(=O)CCN1C(=O)C=CC1=O [MI-6PEG-AANL-D3] ({Propanoyl(3-maleimido)-PEG6}-AANL-X4)
3.28

# lookup: colo320 (colorectal cancer tissue) IC50 Colorectal cancer tissue (colo320), key = `CC[C@@]1(O)C(=O)OCc2c1cc1n(c2=O)Cc2c-1nc1ccccc1c2CCNC1CCCC1`
0.042

Write down measured IC50 Colorectal cancer tissue (colo320) (colo320 (colorectal cancer tissue)) for this compound. `CC[C@@]1(O)C(=O)OCc2c1cc1n(c2=O)Cc2c-1nc1ccccc1c2CCNC1CCC1`
0.017

Specify IC50 Colorectal cancer tissue (colo320) for CC[C@@]1(O)C(=O)OCc2c1cc1n(c2=O)Cc2c-1nc1ccccc1c2CCN(C(=O)[C@H](CC(C)C)NC(=O)[C@H](CC(N)=O)NC(=O)[C@H](C)NC(=O)[C@H](C)NC(=O)CCOCCOCCOCCOCCOCCOCCNC(=O)CCN1C(=O)C=CC1=O)C1CCCC1 [MI-6PEG-AANL-D8] ({Propanoyl(3-maleimido)-PEG6}-AANL-X8) , system colo320 (colorectal cancer tissue).
2.97

Provide colo320 (colorectal cancer tissue) IC50 Colorectal cancer tissue (colo320) reading for CC[C@@]1(O)C(=O)OCc2c1cc1n(c2=O)Cc2c-1nc1ccccc1c2CCN(C(=O)[C@H](CC(C)C)NC(=O)[C@H](Cc1ccccc1)NC(=O)CNC(=O)CNC(=O)CCOCCOCCOCCOCCOCCOCCNC(=O)CCN1C(=O)C=CC1=O)C(C)C [MI-6PEG-GGFL-Belotecan] ({Propanoyl(3-maleimido)-PEG6}-GGFL-Belotecan) .
2.86

Quote IC50 Colorectal cancer tissue (colo320) with test system colo320 (colorectal cancer tissue) for `CCCNCCc1c2c(nc3ccccc13)-c1cc3c(c(=O)n1C2)COC(=O)[C@]3(O)CC`
0.040

Consider the compound CC[C@@]1(O)C(=O)OCc2c1cc1n(c2=O)Cc2c-1nc1ccccc1c2CCN(C(=O)[C@H](CC(C)C)NC(=O)[C@H](CC(N)=O)NC(=O)[C@H](C)NC(=O)[C@H](C)NC(=O)CCOCCOCCOCCOCCOCCOCCNC(=O)CCN1C(=O)C=CC1=O)C1CCC1 [MI-6PEG-AANL-D7] ({Propanoyl(3-maleimido)-PEG6}-AANL-X1) tested on colo320 (colorectal cancer tissue); state its IC50 Colorectal cancer tissue (colo320).
2.48

Give IC50 Colorectal cancer tissue (colo320) for CC[C@@]1(O)C(=O)OCc2c1cc1n(c2=O)Cc2c-1nc1ccccc1c2CCNC [D1] tested on colo320 (colorectal cancer tissue).
0.040

System colo320 (colorectal cancer tissue). Read-out IC50 Colorectal cancer tissue (colo320). Item CC[C@@]1(O)C(=O)OCc2c1cc1n(c2=O)Cc2c-1nc1ccccc1c2CCN(CC(C)C)C(=O)[C@H](CC(C)C)NC(=O)[C@H](CC(N)=O)NC(=O)[C@H](C)NC(=O)[C@H](C)NC(=O)CCOCCOCCOCCOCCOCCOCCNC(=O)CCN1C(=O)C=CC1=O [MI-6PEG-AANL-D5] ({Propanoyl(3-maleimido)-PEG6}-AANL-X5) . Report value.
2.42

// fetch IC50 Colorectal cancer tissue (colo320) for `CC[C@@]1(O)C(=O)OCc2c1cc1n(c2=O)Cc2c-1nc1ccccc1c2CCNCC(C)C` ; system: colo320 (colorectal cancer tissue)
0.029

Tell me its IC50 Colorectal cancer tissue (colo320) on colo320 (colorectal cancer tissue): CC[C@@]1(O)C(=O)OCc2c1cc1n(c2=O)Cc2c-1nc1ccccc1c2CCN(C(=O)[C@H](CC(C)C)NC(=O)[C@H](CC(N)=O)NC(=O)[C@H](C)NC(=O)[C@H](C)NC(=O)CCOCCOCCOCCOCCOCCOCCNC(=O)CCN1C(=O)C=CC1=O)C(C)C [MI-6PEG-AANL-Belotecan] ({Propanoyl(3-maleimido)-PEG6}-AANL-Belotecan)
2.74
